system: T1, human IL-8 (interleukin-8) (human, UniProt P10145 28-99, limits assumed)
T1 construct: also called recombinant human IL-8
T1 sequence (looked up): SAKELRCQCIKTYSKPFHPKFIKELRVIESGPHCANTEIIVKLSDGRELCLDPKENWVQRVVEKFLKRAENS
method description: SPR (Biacore T100, 25 C), antibody captured on anti-human IgG, IL-8 as analyte, 1:1 model, Run 1
readout name: pKd
pKd here: minus log base 10 of the concentration, concentration in moles per litre.

(Q) Value lookup for pKd; key = humanized antibody A0L1 (antibody, human IgG1, kappa, V domains shown, Humanized 1C1.5E5, human IgG1/kappa) VH: QVQLVQSGAEVKKPGASVKVSCKASGYTFTSYWMHWVRQAPGQGLEWMGEIDPSDSNTNYNQKFKGRVTMTRDTSISTAYMELSRLRSDDTAVYYCARELLHAVYWGQGTLVTVSS VL: DIQMTQSPSSLSASVGDRVTITCTASQDIHKYISWYQQKPGKAPKLLIHYTSTLQPGVPSRFSGSGSGTDFTFTISSLQPEDIATYYCLQYDNLWTFGQGTKVEIKR
(A) 10.17
